- Tested on: SNB-78
- method-notes: NCI tumour cell line growth inhibition, 48 h
The source made the active and inactive calls. Cut-off read from the data, not from the text of the source: active = GI50 up to about 1.1 µM and inactive = higher.
Outcome codes: T for active, F for inactive

[
  {
    "compound": "COC1=CC(=Nc2c(Cl)cc(Cl)cc2OC(=O)c2ccc([N+](=O)[O-])cc2)C=C(OC)C1=O",
    "assigned-label": "F"
  },
  {
    "compound": "CCc1cc(Cc2ccc(C)c(NC(=O)C(=O)C3C(=O)NC(=O)NC3=O)c2CC)cc(C)c1NC(=O)C(=O)C1C(=O)NC(=O)NC1=O",
    "assigned-label": "F"
  },
  {
    "compound": "CC(=O)NNc1nc(C)c(C(=O)NNC(=O)C(=O)Nc2ccc(C)cc2[N+](=O)[O-])s1",
    "assigned-label": "F"
  },
  {
    "compound": "CC1=C(c2cc(C(=O)Nc3cc(C)ccc3C)nc(N)n2)Sc2ccccc2N1",
    "assigned-label": "F"
  },
  {
    "compound": "Cc1c(/C=N/NC(=O)c2ccccc2)c(=O)n(-c2ccccc2)n1C",
    "assigned-label": "F"
  },
  {
    "compound": "COc1ccc(/C=C2\\C(=O)N(C(=O)c3ccc(NC(C)=O)cc3)N=C2C)cc1OC",
    "assigned-label": "F"
  },
  {
    "compound": "C[C@@H]1[C@H](c2ccccc2)O[B-]2(c3ccc(Br)cc3)OC(=O)C[N+]12C (some centres undefined)",
    "assigned-label": "F"
  },
  {
    "compound": "C=CCc1cc(OC)c2c(c1)C(OC)CC(c1ccc(OC)c(OC)c1)O2 (centres undefined)",
    "assigned-label": "F"
  },
  {
    "compound": "CC(C)C12C=CC(C)(CC1)n1c(=O)c3cc4ccccc4cc3c(=O)n12 (centres undefined)",
    "assigned-label": "F"
  },
  {
    "compound": "C=CCCCCCCCCC(=O)NS(=O)(=O)c1ccccc1",
    "assigned-label": "F"
  },
  {
    "compound": "Cc1cccc2nc3c(C(=O)NCCN(C)C)cccc3cc12",
    "assigned-label": "F"
  },
  {
    "compound": "CC1=CC(=O)NP(=O)(C23CC4CC(CC(C4)C2)C3)N1 (centres undefined)",
    "assigned-label": "F"
  },
  {
    "compound": "COc1c(C)cc2c(C(C)C)c(O)c(O)c(C=O)c2c1O",
    "assigned-label": "F"
  },
  {
    "compound": "Cc1cc(Cl)ccc1NC1=NC(=O)C(CC(=O)Nc2cccc(Cl)c2)S1 (centres undefined)",
    "assigned-label": "F"
  },
  {
    "compound": "CCCCP1(=O)C=CC(Cl)=C(C)C1 (centres undefined)",
    "assigned-label": "F"
  },
  {
    "compound": "Cc1ccn2c(c1)nc1nc3ccccc3nc12",
    "assigned-label": "F"
  },
  {
    "compound": "CCCCCCCCCCCCCCCC(=O)OCC1OC(n2cc(F)c(=O)[nH]c2=O)C(NC(=O)N(CCCl)N=O)C(O)C1O (centres undefined)",
    "assigned-label": "F"
  },
  {
    "compound": "Cn1c(=O)c2nc(N3CCOCC3)cnc2n(C)c1=O",
    "assigned-label": "F"
  },
  {
    "compound": "c1ccc(COC2(OCc3ccccc3)CC3OC2C2NN=NC32)cc1 (centres undefined)",
    "assigned-label": "F"
  },
  {
    "compound": "O=C(CC1(O)C(=O)Nc2ccccc21)c1ccc(Cl)c(Cl)c1 (centres undefined)",
    "assigned-label": "F"
  },
  {
    "compound": "CCCCC(C(=O)CCC(=O)Nc1ccc(Cl)c(Cl)c1)C(=O)C(C)C (centres undefined)",
    "assigned-label": "F"
  },
  {
    "compound": "CC(=O)C(O)N1C(=O)C=CC1=O (centres undefined)",
    "assigned-label": "F"
  },
  {
    "compound": "CCCn1cc2c(O)nc(SC)nc2n1",
    "assigned-label": "F"
  },
  {
    "compound": "CC1(C)CC(=O)c2c(oc3cc(O)c(O)cc23)C1",
    "assigned-label": "F"
  },
  {
    "compound": "CC(C(=O)c1ccccc1)C1(O)C(=O)Nc2ccccc21 (centres undefined)",
    "assigned-label": "F"
  },
  {
    "compound": "COc1cc(C2c3cc4c(cc3OC3(O)COC(=O)C23)OCO4)cc(OC)c1OC (centres undefined)",
    "assigned-label": "F"
  },
  {
    "compound": "Cc1cc(N(CCC#N)S(=O)(=O)c2ccccc2)ccc1/C=C1N=C(/C=C/c2ccccc2)OC\\1=O",
    "assigned-label": "F"
  },
  {
    "compound": "CCn1c2c(c3ccccc31)[C@@H](c1ccc(Cl)cc1)CC1C(=O)N(c3ccccc3)C(=O)C21 (some centres undefined)",
    "assigned-label": "F"
  },
  {
    "compound": "C/N=C1\\CC2c3cc(OC)c(OC)cc3CCN2C2=C1C(=O)CC(C)(C)C2 (centres undefined)",
    "assigned-label": "F"
  },
  {
    "compound": "c1ccc2[nH]c(-c3nc4ccccc4o3)nc2c1",
    "assigned-label": "F"
  },
  {
    "compound": "CC(=O)Nc1ccc(C(=O)NN2C(=O)C(Cl)C2c2ccc(O)cc2)cc1 (centres undefined)",
    "assigned-label": "F"
  },
  {
    "compound": "C=CCc1cc(-c2cc(CC=C)c(O)c(CN(CC)CC)c2)cc(CN(CC)CC)c1O",
    "assigned-label": "F"
  },
  {
    "compound": "Cc1c2cc[n+](C)c(C)c2cc2c1[nH]c1ccccc12",
    "assigned-label": "F"
  },
  {
    "compound": "CO[C@H]1C[C@@H]2CC[C@@H](C)[C@@](O)(O2)C(=O)C(=O)N2CCCC[C@H]2C(=O)O[C@H]([C@H](C)C[C@@H]2CC[C@@H](O)[C@H](OC)C2)CC(=O)[C@H](C)C=C(C)[C@@H](O)[C@@H](OC)C(=O)[C@H](C)C[C@H](C)/C=C/C=C/C=C1C",
    "assigned-label": "T"
  },
  {
    "compound": "Cc1c(C(=O)CSc2nc3ccccc3[nH]2)c(=O)n(-c2ccccc2)n1C",
    "assigned-label": "F"
  },
  {
    "compound": "O=C(Nc1nnn[nH]1)c1nc(O)cc(-c2ccccc2)n1",
    "assigned-label": "F"
  },
  {
    "compound": "O=C1C2=C(C3=NCCc4c[nH]c1c43)c1c(Br)cc(Br)cc1CCN2",
    "assigned-label": "F"
  },
  {
    "compound": "C=C1CC2CC(O)CC(C1)C2 (centres undefined)",
    "assigned-label": "F"
  },
  {
    "compound": "CC(NCCS(=O)(=O)O)C(=O)O (centres undefined)",
    "assigned-label": "F"
  }
]

###

In this section, each of the molecules is paired with its reported GI50.
- Test system: OVCAR-5
- method-notes: NCI tumour cell line growth inhibition, 48 h
Activity calls are given as the source filed them. Cut-off read from the data, not from the text of the source: active = GI50 up to about 1.1 µM and inactive = higher.

[
  {
    "molecule": "O=c1/c(=C/c2ccccc2F)sc2nc3ccccc3n12",
    "GI50": "> 100 µM (inactive)"
  },
  {
    "molecule": "CC(=O)Nc1cc2nc3n(c2cc1C)CCC3OC(C)=O (stereo not given)",
    "GI50": "> 100 µM (inactive)"
  },
  {
    "molecule": "CC(=O)NNc1nc(C)c(C(=O)NNC(=O)C(=O)Nc2cccc(C(C)=O)c2)s1",
    "GI50": "> 100 µM (inactive)"
  },
  {
    "molecule": "CC1(C)COC(/C=C/C2=NC(C)(C)CO2)=N1",
    "GI50": "20.4 µM (inactive)"
  },
  {
    "molecule": "N=C(N)NCCCC(=O)O",
    "GI50": "> 100 µM (inactive)"
  },
  {
    "molecule": "CN(C)CCNC(=O)c1cccc2[nH]c(-c3ccc(Cl)cc3)nc12",
    "GI50": "10.3 µM (inactive)"
  },
  {
    "molecule": "CSC(=N\\c1ccccc1)/N=C(\\SCc1ccccc1)N(C)C",
    "GI50": "1.49 µM (inactive)"
  },
  {
    "molecule": "O=C(N/N=C/c1ccc2c(c1)OCO2)Nc1ccccc1Cl",
    "GI50": "8 µM (inactive)"
  },
  {
    "molecule": "O=[N+]([O-])c1ccc(S(=O)(=O)n2c3ccc(Br)cc3c3nc4ccccc4nc32)cc1",
    "GI50": "> 100 µM (inactive)"
  },
  {
    "molecule": "Fc1ccc(C(OCCN2CCC3CCC(C2)N3Cc2cc3ccccc3[nH]2)c2ccc(F)cc2)cc1 (stereo not given)",
    "GI50": "1.74 µM (inactive)"
  },
  {
    "molecule": "CCOC(=O)Cc1cc(=O)[nH]c(-n2[nH]c(C)c(CCO)c2=O)n1",
    "GI50": "> 100 µM (inactive)"
  },
  {
    "molecule": "C=CS(=O)(=O)c1c2cc(OC)ccc2nc2ccc(OC)cc12",
    "GI50": "6.14 µM (inactive)"
  },
  {
    "molecule": "COc1c2occc2c(OC)c2c(=O)c(S(=O)(=O)NC(=O)Nc3ccc(Cl)cc3)coc12",
    "GI50": "> 10 µM (inactive)"
  },
  {
    "molecule": "O=[N+]([O-])c1cc(-c2nc(-c3ccccc3)c(-c3ccccc3)[nH]2)c(O)c([N+](=O)[O-])c1",
    "GI50": "23.2 µM (inactive)"
  },
  {
    "molecule": "COc1ccc2nc(NC(=O)C(=O)C(C(=O)c3ccccc3-c3ccccc3)C3OC(=O)c4ccccc43)sc2c1 (stereo not given)",
    "GI50": "18.7 µM (inactive)"
  }
]
